EXPERIMENTAL ENDPOINT: melting point

> print(dat)
                                   molecule    test.result
1        CC(=O)c1ccc(-c2cccc(C(F)(F)F)c2)o1  105 to 109 °C
2  COc1ccc(S(N)(=O)=O)cc1N=Nc1c(O)c(O)c(N=Nc2cc(S(N)(=O)=O)ccc2OC)c2ccccc12         345 °C
3         Nc1ncc2ncnc(Nc3ccc(F)c(Cl)c3)c2n1  300 to 301 °C
4  CCCc1c(OCCCOc2ccc3c(c2)CCC(CC(=O)O)C3=O)ccc(C(C)=O)c1O (stereo not drawn)  123 to 125 °C
5       Fc1ccc(-c2ncn(C3CC3)c2-c2ccncc2)cc1  129 to 130 °C
6  CCNC(=O)c1ccc(F)c2c1CC(N(CCCc1c[nH]c3ccc(F)cc13)C1CCC1)CO2 (stereo not drawn)         130 °C
7      CCCCCCCCCCCCCCOc1ccc2cc(C(=O)O)oc2c1  131 to 135 °C

Now take the following molecule into account.
Tell me the measured melting point of CC(=S)Nc1ccc(C(=O)O)cc1 , please. 220 °C

====

Listing of recorded melting point by entry.

Here is how some molecules turned out for melting point.
> print(dat)
           chemical.string  experimental.endpoint  test.result
1  Cc1cccc(N=NC2=NCCS2)c1C          melting point  74 to 79 °C
2    CON=C(C(=O)O)C(=O)CBr          melting point  76 to 78 °C

Quick one: melting point of CCC1(CC)c2cc(Br)ccc2-c2ccc(C=O)cc21 ? 126 to 128 °C

====

melting point overview

Before answering, review these 5 worked examples.
> print(dat)
                                   compound  experimental.endpoint    test.result
1  O=C(O)Cn1c2c([nH]c(=O)c1=O)CCC1=C2C=C(n2ccc(CN3CCN(c4ccc([N+](=O)[O-])cc4)CC3)c2)CC1          melting point       > 300 °C
2  CCCn1ncnc1COc1nc2c(cc1C(C)(C)C)nnn2-c1ccccc1F          melting point  127 to 129 °C
3  CC(C)n1nc(-c2c(-c3ccccc3)nn3cccc(OCCN(C)C)c23)ccc1=O          melting point  137 to 138 °C
4  Cc1ccc(-c2nc3ccc(N)cn3c2CNC(=O)CC(C)C)cc1          melting point  245 to 247 °C
5  CC1=NOCC1(C)S(=O)(=O)n1nc(Cl)nc1-c1ccccc1 (centres undefined)          melting point    70 to 74 °C

Any idea what melting point was measured for CN1CC(CCCl)Oc2ccccc2C1=O (centres undefined) ? 97 to 107 °C

// returns reported melting point for input COC1CCCNC(=O)C1 (centres undefined) 70 to 73 °C

Look up melting point: CON(c1ccc([N+](=O)[O-])cc1C#N)S(=O)(=O)c1ccc(C(F)(F)F)cc1 134 to 135 °C

Consider the compound shown here: CN(C)C(=S)Sc1cc(=O)n(Cc2ccccc2)s1 What is its recorded melting point? 184 to 186 °C

Quick one: melting point of COC(=O)C(C)c1nsc2ccc([N+](=O)[O-])cc12 (centres undefined) ? 88 to 90 °C

I am curious: what melting point value has been reported for CCC#COc1ccc(S(=O)(=O)NC(CSC)C(=O)NO)cc1 (centres undefined) ? 128 to 130 °C

Would you mind telling me what melting point value was observed for CCC(=O)n1c(=O)oc2ccccc21 ? 88 to 90 °C

# get_value(readout='melting point', item= Cc1cc(O)nc(C=Cc2ccccc2)n1 ) 217 to 219 °C

What melting point value was documented for this compound, COc1cc(C(=O)N2CCN(c3ccc(N)cc3)CC2)cc(OC)c1O ? 182 to 183 °C

For the compound CCOC(=O)C1=C(C)NC(C)=C(C(=O)OCC)C1c1ccccc1/C=C/C#N , what melting point is on record? 172 to 173 °C

Query: melting point; subject: COC(=O)C1Cc2c([nH]c3ccccc23)C(C)N1 (centres undefined) 152 to 154 °C
